Below is a list of entries, each paired with its recorded IC50 value.
# studyTarget: PDGF-Ra (Homo sapiens)
# Construct: host or cells: G-292 human osteosarcoma cells
# Sequence (P16234 24-1089): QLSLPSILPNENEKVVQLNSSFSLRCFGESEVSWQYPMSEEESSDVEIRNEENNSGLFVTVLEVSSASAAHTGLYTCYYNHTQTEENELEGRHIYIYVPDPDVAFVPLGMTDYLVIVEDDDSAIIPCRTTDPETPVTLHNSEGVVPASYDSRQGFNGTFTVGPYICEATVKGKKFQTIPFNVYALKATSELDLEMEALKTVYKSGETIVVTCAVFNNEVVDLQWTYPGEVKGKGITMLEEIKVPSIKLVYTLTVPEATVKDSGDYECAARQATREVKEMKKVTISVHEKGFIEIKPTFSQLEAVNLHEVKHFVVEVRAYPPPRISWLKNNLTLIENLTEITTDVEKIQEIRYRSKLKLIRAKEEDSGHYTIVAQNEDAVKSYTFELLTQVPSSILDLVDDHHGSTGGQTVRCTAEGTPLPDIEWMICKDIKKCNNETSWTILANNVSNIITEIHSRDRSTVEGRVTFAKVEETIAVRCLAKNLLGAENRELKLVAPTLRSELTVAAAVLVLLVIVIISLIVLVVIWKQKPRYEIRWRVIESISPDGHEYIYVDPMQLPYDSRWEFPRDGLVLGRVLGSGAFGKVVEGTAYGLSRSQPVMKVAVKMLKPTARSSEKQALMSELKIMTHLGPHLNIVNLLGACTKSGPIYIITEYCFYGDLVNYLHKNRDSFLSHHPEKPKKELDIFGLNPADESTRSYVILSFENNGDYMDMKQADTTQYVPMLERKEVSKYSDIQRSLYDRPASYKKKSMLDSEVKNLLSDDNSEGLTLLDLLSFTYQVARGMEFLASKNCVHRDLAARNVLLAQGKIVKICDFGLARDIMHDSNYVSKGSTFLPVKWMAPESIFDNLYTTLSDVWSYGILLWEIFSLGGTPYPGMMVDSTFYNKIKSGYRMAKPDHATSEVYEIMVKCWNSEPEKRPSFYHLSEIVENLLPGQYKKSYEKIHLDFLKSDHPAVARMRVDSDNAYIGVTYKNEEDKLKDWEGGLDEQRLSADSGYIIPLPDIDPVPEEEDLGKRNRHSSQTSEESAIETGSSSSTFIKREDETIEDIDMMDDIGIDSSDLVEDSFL
# assayInfo: Inhibitory activity against PDGF-Ra phosphorylation by PDGF-AA stimulation using G292
# Assay type: cell-based
# conditionParameters: Pharmacological Test Example 1; > means inhibition at indicated concentration not more than 50%, < and << not less than 50%; read-out: PDGF (E) IC50

See these solved cases before continuing.
COc1cc2ncnc(Oc3ccc(NC(=O)OCc4ccccc4Cl)cc3)c2cc1OC [Example 317] :: < 10 nM
COc1cc2nccc(Oc3cc(C)c(NC(=O)OCCc4ccccc4)cc3C)c2cc1OC [Example 298] :: < 10 nM

Query: Quick check: IC50 of COc1cc2nccc(Oc3ccc(NC(=O)Oc4ccc(C(C)(C)C)cc4)cc3)c2cc1OC [Example 259] ?
Result: 34 nM

Query: Quick check: IC50 of COc1ccc(OC)c(COC(=O)Nc2ccc(Oc3ncnc4cc(OC)c(OC)cc34)cc2Cl)c1 [Example 71] ?
Result: 38 nM

Query: Quick check: IC50 of COc1cc2ncnc(Oc3ccc(NC(=O)OC(C)c4ccc(F)cc4)cc3)c2cc1OC (centres unmarked) [Example 105] ?
Result: < 10 nM

Query: Quick check: IC50 of COc1cc2nccc(Oc3ccc(NC(=O)OC4CCCC4)c(C)c3C)c2cc1OC [Example 365] ?
Result: < 10 nM

Query: Quick check: IC50 of COc1cc2ncnc(Oc3ccc(NC(=O)OCC4CCC4)c(Cl)c3)c2cc1OC [Example 389] ?
Result: 51 nM

Query: Quick check: IC50 of COc1cc2nccc(Oc3ccc(NC(=O)OC4CCCCCC4)cc3)c2cc1OC [Example 286] ?
Result: < 10 nM

Query: Quick check: IC50 of COc1cc2ncnc(Oc3ccc(NC(=O)OC(C)c4ccccc4Br)cc3)c2cc1OC (centres unmarked) [Example 115] ?
Result: < 10 nM

Query: Quick check: IC50 of COc1cc2ncnc(Oc3ccc(NC(=O)OCc4ccc(F)cc4)c(Cl)c3)c2cc1OC [Example 12] ?
Result: 11 nM

Query: Quick check: IC50 of CCCCCCOC(=O)Nc1ccc(Oc2ncnc3cc(OC)c(OC)cc23)cc1Cl [Example 336] ?
Result: 14 nM

Query: Quick check: IC50 of COc1cc2ncnc(Oc3ccc(NC(=O)OCC4CC4)c(Cl)c3)c2cc1OC [Example 384] ?
Result: > 100 nM

Query: Quick check: IC50 of COc1cc2nccc(Oc3cc(C)c(NC(=O)OCc4cccc(C)c4)cc3C)c2cc1OC [Example 254] ?
Result: > 100 nM

Query: Quick check: IC50 of COc1cc2nccc(Oc3ccc(NC(=O)OCCCOc4ccccc4Cl)c(C)c3C)c2cc1OC [Example 17] ?
Result: < 10 nM
